# System: CEM cells
# Test protocol: Cytotoxicity, CEM human T-lymphocytes
# Setup conditions: IC50 T-lymphocytes (CEM)/IC50 P388
Observed property: TIP388 (CEM cells)

Dear colleague, could you send me TIP388 (CEM cells) for each of the items below? Thanks.
1. CCN(CC)CCC(=O)/C=C/c1ccc(C)cc1
2. CCN1CCC(O)(/C=C/c2cccc(C)c2)C(C(=O)/C=C/c2cccc(C)c2)C1 (stereo not drawn) [Compound 13a]
3. CCN1CCC(O)(/C=C/c2ccc(OC)cc2)C(C(=O)/C=C/c2ccc(OC)cc2)C1 (stereo not drawn)

[44.19, 4.89, 2.35]
